The entries below come with measured EC50, CreLuc assay, 100% hP values attached.
molecular target: human GLP-1 receptor (human, UniProt P43220 24-463); experiment: cell-based or functional assay
Starred links: 1 amine or outer side, 2 acyl side, 3 side chain; linkers in the order of their positions; H or OH if unused. Non-standard residues stand in square brackets, D forms with d. Groups on a side chain read outwards from the residue. No end group written: not given here. *: point of attachment. C20 diacid = O=C(O)CCCCCCCCCCCCCCCCCCC(=O)*; γGlu = O=C(O)[C@H](CCC(=O)[*:2])N[*:1]; εLys = N[C@@H](CCCCN[*:1])C(=O)[*:2]; Aib = CC(C)(N)C(=O)O
Report only the number, with the unit nM understood.

The cases that follow already have their EC50, CreLuc assay, 100% hP on record.
{"columns": ["binder", "EC50, CreLuc assay, 100% hP, nM"],
 "data": [
  ["Y[Aib]EGTFTSDYSI[Aib]LEKQAQ[Aib]AFVQWLIK([εLys-Glu-γGlu-γGlu-γGlu-γGlu-C20 diacid])GGPEYYASLRHYYNWLTRQRY-NH2 (also: TFA salt) [Compound 23]", 37.7],
  ["Y[Aib]EGTFTSDYSI[Aib]LEKQAQ[Aib]AFVQWLIK([εLys-γGlu-γGlu-γGlu-γGlu-γGlu-C20 diacid])GGPEEPASLRHYYNWLTRQRY-NH2 (also: TFA salt) [Compound 67]", 27.4],
  ["YXEGTFTSDYSIXLEKQAQXAFVEWLIKGGPSSGIELRHFLNHLTRQRY (Aib at 2, 13, 20; K28 side chain: C20DA-gGlu-gGlu-gGlu-gGlu-gGlu-gGlu-eLys; C-terminal NH2) [Compound 2]", 1.39]
]}

Exam item: // Input: Y[Aib]EGTFTSDYSI[Aib]LEKQAQ[Aib]AFVEWLIK([γGlu-γGlu-γGlu-γGlu-γGlu-γGlu-C20 diacid])GGGSEYVSLRHYYNWLTRQRY-NH2 (also: TFA salt) [Compound 65] . Output its EC50, CreLuc assay, 100% hP only.
Marked response: 49.3
